Target: S1P1 (membranes prepared from S1P1/CHO cells) (Homo sapiens (Human))
Sequence (P21453 whole entry): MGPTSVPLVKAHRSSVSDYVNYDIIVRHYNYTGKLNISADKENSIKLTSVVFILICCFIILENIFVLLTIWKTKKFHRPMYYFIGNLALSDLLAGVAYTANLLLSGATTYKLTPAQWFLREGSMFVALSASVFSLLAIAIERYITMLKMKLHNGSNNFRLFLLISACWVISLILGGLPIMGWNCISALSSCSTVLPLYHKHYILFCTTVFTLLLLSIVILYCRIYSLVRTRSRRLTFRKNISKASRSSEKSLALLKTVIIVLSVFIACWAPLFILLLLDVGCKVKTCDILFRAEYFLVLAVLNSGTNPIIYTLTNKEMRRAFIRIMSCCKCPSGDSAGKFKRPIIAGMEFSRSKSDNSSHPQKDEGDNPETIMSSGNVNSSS
Assay: Receptor [35S] GTPγS binding assay (S1P1 GTPγS)
Format: biochemical
Details: phosphate examples; read-out: S1P1 GTPγS
Protocol: Receptor [^35S] GTPγS Binding Assays: (S1P1 GTPγS/S1P3 GTPγS) Compounds were loaded in a 384 Falcon v-bottom plate (0.5 μl/well in a 11 point, 3-fold dilution). Membranes prepared from S1P1/CHO cells or EDG3-Gal5-bla HEK293T cells (EDG3 equivalent S1P3) were added to the compound plate (40 μl/well, final protein 3 μg/well) with MULTIDROP®. [^35S] […]
pEC50: −log10 of the molar value.
property measured: pEC50

| compound | pEC50 |
| --- | --- |
| C=CCC/C=C/[C@@H]1CCc2cc([C@H]3CC[C@](N)(COP(=O)(O)O)C3)ccc2C1 | 7.00 to 8.00 |
| CCCCOCCO[C@H]1CCc2cc([C@@H]3CC[C@@](N)(COP(=O)(O)O)C3)ccc2C1 | 7.00 to 8.00 |
| Cc1ccc(OC[C@@H]2CCc3cc([C@H]4CC[C@](N)(COP(=O)(O)O)C4)ccc3C2)cc1 | 7.00 to 8.00 |

Find the measured pEC50 of CCCC/C=C/[C@@H]1CCc2cc([C@H]3CC[C@](N)(COP(=O)(O)O)C3)ccc2C1 [compound 636] and report it.
7.00 to 8.00

Find the measured pEC50 of `C/C=C\CCCC[C@H]1CCc2cc([C@H]3CC[C@](N)(COP(=O)(O)O)C3)ccc2C1` and report it.
> 8.00

Find the measured pEC50 of N[C@@]1(COP(=O)(O)O)CC[C@@H](c2ccc3c(c2)CC[C@H](CCc2cccnc2)C3)C1 (single isomer, unassigned) and report it.
7.00 to 8.00

Find the measured pEC50 of `CC(C)CCOC[C@@H]1CCc2cc([C@H]3CC[C@](N)(COP(=O)(O)O)C3)ccc2C1` and report it.
7.00 to 8.00

Find the measured pEC50 of N[C@@]1(COP(=O)(O)O)CC[C@@H](c2ccc3c(c2)CC[C@H](OCCOc2ccccc2)C3)C1 (single isomer, unassigned) and report it.
7.00 to 8.00

Find the measured pEC50 of `CCc1ccc(COC[C@@H]2CCc3cc([C@H]4CC[C@](N)(COP(=O)(O)O)C4)ccc3C2)s1` and report it.
7.00 to 8.00

Find the measured pEC50 of `N[C@]1(COP(=O)(O)O)CC[C@H](c2ccc3c(c2)CC[C@@H](/C=C/C2CCOCC2)C3)C1` and report it.
> 8.00

Find the measured pEC50 of `CCCCOC[C@H]1CCc2cc([C@H]3CC[C@](N)(COP(=O)(O)O)C3)ccc2C1` and report it.
6.00 to 7.00

Find the measured pEC50 of `CC(C)OCCC[C@@H]1CCc2cc([C@@H]3CC[C@@](N)(COP(=O)(O)O)C3)ccc2C1` and report it.
> 8.00

Find the measured pEC50 of `C/C=C/CCCC[C@H]1CCc2cc([C@H]3CC[C@](N)(COP(=O)(O)O)C3)ccc2C1` and report it.
> 8.00

Find the measured pEC50 of `CCCCCC[C@H]1CCc2cc([C@H]3CC[C@](N)(COP(=O)(O)O)C3)c(I)cc2C1` and report it.
> 8.00

Find the measured pEC50 of `N[C@]1(COP(=O)(O)O)CC[C@H](c2ccc3c(c2)CC[C@@H](CCCC2CCOCC2)C3)C1` and report it.
7.00 to 8.00

Hello, the source for this data is patent US9522888B2, in case you need it.
